- Species on record: Mus musculus
- method.notes: Hypervitaminosis dose determined as a measure of toxicity
- Format: functional
parameter: Dose

The cases that follow already have their Dose on record.
{"columns": ["compound", "reported"],
 "data": [
  ["CCOC(=O)/C=C(C)/C(F)=C/C=C(C)/C=C/c1c(C)cc(OC)c(C)c1C", "50 mg/kg/day"],
  ["CCOC(=O)/C=C(C)/C(F)=C/C=C(C)/C=C/c1c(C)cc(C)c(Cl)c1C", ">200 mg/kg/day"],
  ["CCOC(=O)/C=C(C)/C(F)=C/C=C(C)/C=C/c1c(Cl)cc(OC)c(C)c1C", "50 mg/kg/day"]
]}

// query Using the record for CCOC(=O)/C=C(C)/C=C/C=C(C)/C=C/c1c(C)cc(OC)c(C)c1C [ETRETINATE] , report its Dose.
// result 100 mg/kg/day

// query Which value of Dose has been reported for CCOC(=O)/C=C(C)/C(F)=C/C=C(C)/C=C/c1c(Cl)cc(OC)c(C)c1Cl in the records?
// result 25 mg/kg/day

// query Find the recorded Dose belonging to CCOC(=O)/C=C(C)/C(F)=C/C=C(C)/C=C/c1c(C)cc(OC)c(C)c1Cl and report it.
// result 50 mg/kg/day
